Each recorded value in this set is attributed to paper PMC8400955.

Target: CYP2E1 (Homo sapiens)
Sequence (P05181 whole entry): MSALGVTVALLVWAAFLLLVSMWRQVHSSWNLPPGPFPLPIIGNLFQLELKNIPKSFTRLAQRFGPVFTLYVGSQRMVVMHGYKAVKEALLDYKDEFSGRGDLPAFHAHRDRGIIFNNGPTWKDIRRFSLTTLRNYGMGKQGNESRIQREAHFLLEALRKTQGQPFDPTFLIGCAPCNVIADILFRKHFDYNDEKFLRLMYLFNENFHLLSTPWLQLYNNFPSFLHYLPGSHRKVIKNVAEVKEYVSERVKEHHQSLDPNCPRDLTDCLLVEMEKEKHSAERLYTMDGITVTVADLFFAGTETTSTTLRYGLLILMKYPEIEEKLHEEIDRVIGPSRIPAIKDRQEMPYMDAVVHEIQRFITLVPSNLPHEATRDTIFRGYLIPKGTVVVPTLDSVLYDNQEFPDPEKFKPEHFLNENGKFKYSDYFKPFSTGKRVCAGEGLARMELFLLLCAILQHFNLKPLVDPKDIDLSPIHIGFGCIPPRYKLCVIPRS
Test: CYP phenotyping, recombinant CYP2E1
Conditions: human
Observed Property: half-life at 2 µM

C[C@]12CC[C@@H]3c4ccc(B(O)O)cc4C[C@@H](CCCCCCCCC[S+]([O-])CCCC(F)(F)C(F)(F)F)[C@H]3[C@@H]1CC[C@@H]2O (stereo partly shown) | 19.4 min

* * *

Tested on: CYP1A2
Experiment: CYP induction (enzyme activity) in cryopreserved human hepatocytes, CYP1A2
Settings: human, plated cryopreserved human hepatocytes, Fold Induction, donor one, 5 µM
Observed Property: fold induction at 72 h, 5 µM

C[C@]12CC[C@@H]3c4ccc(B(O)O)cc4C[C@@H](CCCCCCCCC[S+]([O-])CCCC(F)(F)C(F)(F)F)[C@H]3[C@@H]1CC[C@@H]2O (stereo partly shown) | 7.09

* * *

Assay: 4-week repeat-dose toxicity/TK study in rats
Assay type: in vivo, Sprague Dawley rats
Conditions: female, Sprague Dawley (Crl: CD (SD)), rat, plasma, po, 100 mg/kg/day, day 1, PO 100 mg/kg/day, Female
Observed Property: AUC(0-t) (ng·h/mL)

C[C@]12CC[C@@H]3c4ccc(B(O)O)cc4C[C@@H](CCCCCCCCC[S+]([O-])CCCC(F)(F)C(F)(F)F)[C@H]3[C@@H]1CC[C@@H]2O (stereo partly shown) | 42200

* * *

Assay: 4-week repeat-dose toxicity/TK study in dogs
Format: in vivo, beagle dogs
Settings: female, beagle, dog, plasma, po, 200 mg/kg/day, day 28, PO 200 mg/kg/day, F
Observed Property: AUC(0-t) (µg·h/mL)

C[C@]12CC[C@@H]3c4ccc(B(O)O)cc4C[C@@H](CCCCCCCCC[S+]([O-])CCCC(F)(F)C(F)(F)F)[C@H]3[C@@H]1CC[C@@H]2O (stereo partly shown) [ZB716, fulvestrant-3-boronic acid] | 14.9

* * *

Tested on: CYP2B6
Experiment: CYP induction (enzyme activity) in cryopreserved human hepatocytes, CYP2B6
Settings: human, plated cryopreserved human hepatocytes, Fold Induction, donor three, 1000 µM
Observed Property: fold induction at 72 h, 1000 µM

CCC1(c2ccccc2)C(=O)NC(=O)NC1=O [Phenobarbital, phenobarbital, reference compound] | 6.29

* * *

Test: 7-day repeated-dose PK in rats
Assay type: in vivo, Sprague Dawley rats
Conditions: female, Sprague Dawley, rat, plasma, po, 10 mg/kg/day, day 1, PO 10 mg/kg/day, F
Observed Property: AUC(0-t) (ng·h/mL)

C[C@]12CC[C@@H]3c4ccc(B(O)O)cc4C[C@@H](CCCCCCCCC[S+]([O-])CCCC(F)(F)C(F)(F)F)[C@H]3[C@@H]1CC[C@@H]2O (stereo partly shown) | 1760

* * *

Assay: 4-week repeat-dose toxicity/TK study in rats
Type: in vivo, Sprague Dawley rats
Details: male, Sprague Dawley (Crl: CD (SD)), rat, plasma, po, 400 mg/kg/day, day 28, PO 400 mg/kg/day, Male
Observed Property: Tmax (h)

C[C@]12CC[C@@H]3c4ccc(B(O)O)cc4C[C@@H](CCCCCCCCC[S+]([O-])CCCC(F)(F)C(F)(F)F)[C@H]3[C@@H]1CC[C@@H]2O (stereo partly shown) [ZB716, fulvestrant-3-boronic acid] | 2

* * *

Experiment: Single-dose PK and bioavailability of ZB716 in rats
Type: in vivo
Details: male, Sprague Dawley, rat, plasma; single dose, PO 6 mg/kg/day, M
Observed Property: AUC(0-t) (µg·h/mL)

C[C@]12CC[C@@H]3c4ccc(B(O)O)cc4C[C@@H](CCCCCCCCC[S+]([O-])CCCC(F)(F)C(F)(F)F)[C@H]3[C@@H]1CC[C@@H]2O (stereo partly shown) [ZB716, fulvestrant-3-boronic acid] | 0.936
